read-out: Collagen III, COL3A1 (gene 1281); assay: BSK_hDFCGF_CollagenIII: BioMAP Diversity Plus: hDFCGF Assay for Collagen III Biomarker Activity (AID 2283056); settings: primary human foreskin fibroblasts; actives raise or lower the signal
Calls of active or inactive are those of the source. Rule for the calls: active = hit-call score of the fitted dose curve at least 0.9, where 1 is the maximum; inactive = score below 0.9.
// allowed return values: active, inactive

Write down the call the test reported for this compound. Item: OCC(F)(F)C(F)(F)C(F)(F)C(F)(F)C(F)(F)C(F)(F)CO inactive

Write down the call the test reported for this compound. Item: FC(F)(F)C(F)(F)C(F)(F)CC1CO1 (centres undefined) inactive

Write down the call the test reported for this compound. Item: O=C(O)C(F)(F)C(F)(F)C(F)(F)OC(F)(C(F)(F)F)C(F)(F)F inactive

Write down the call the test reported for this compound. Item: CN(C(=O)C(F)(F)C(F)(F)C(F)(F)F)[Si](C)(C)C inactive

Write down the call the test reported for this compound. Item: NCC(F)(F)C(F)(F)C(F)(F)C(F)(F)C(F)(F)C(F)(F)C(F)(F)C(F)(F)F inactive

Write down the call the test reported for this compound. Item: CNS(=O)(=O)C(F)(F)C(F)(F)C(F)(F)C(F)(F)C(F)(F)C(F)(F)C(F)(F)C(F)(F)F inactive

Write down the call the test reported for this compound. Item: CC(C)(C)c1cc(CCC(=O)NCCCCCCNC(=O)CCc2cc(C(C)(C)C)c(O)c(C(C)(C)C)c2)cc(C(C)(C)C)c1O inactive

Write down the call the test reported for this compound. Item: O=S(=O)(Cl)C(F)(F)C(F)(F)C(F)(F)C(F)(F)C(F)(F)C(F)(F)C(F)(F)C(F)(F)F inactive

Write down the call the test reported for this compound. Item: O=C1c2c(O)ccc(Nc3ccc(CCO)cc3)c2C(=O)c2c([N+](=O)[O-])ccc(O)c21 active

###

assay: ATG_TAL_CIS: Attagene CIS-FACTORIAL HepG2 Assay for human TAL Basal Promoter (AID 2282966); conditions: HepG2 Attagene cis-factorial TAL promoter reporter; actives raise or lower the signal;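 note: background control endpoint measuring basal TAL promoter reporter mRNA not a specific factor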
Activity calls are given as the source filed them. Rule for the calls: active = hit-call score of the fitted dose curve at least 0.9, where 1 is the maximum; inactive = score below 0.9.
// allowed return values: active, inactive

Write down the call the test reported for this molecule. Item: O=C1C=CC(=O)N1c1ccc(Cc2ccc(N3C(=O)C=CC3=O)cc2)cc1 active

Write down the call the test reported for this molecule. Item: O=C(c1ccccc1)c1ccc(O)cc1O inactive

Write down the call the test reported for this molecule. Item: C=CCOC(=O)CC(C)C inactive

Write down the call the test reported for this molecule. Item: CCOC(=O)CC(=O)C(F)(F)C(F)(F)F inactive

Write down the call the test reported for this molecule. Item: O=C(O)C(F)(F)C(F)(F)C(F)(F)OC(F)(C(F)(F)F)C(F)(F)F inactive

Write down the call the test reported for this molecule. Item: OCCCC(F)(F)C(F)(F)C(F)(F)C(F)(F)C(F)(F)C(F)(F)C(F)(F)C(F)(F)F inactive

Write down the call the test reported for this molecule. Item: CN(C)C(C)(C)CO inactive

Write down the call the test reported for this molecule. Item: CCC(C)CO (stereo not drawn) inactive

Write down the call the test reported for this molecule. Item: CCCCCC/C=C/CCCCCCCC(=O)O inactive

Write down the call the test reported for this molecule. Item: O=C(O)CCC(F)(F)C(F)(F)C(F)(F)C(F)(F)C(F)(F)C(F)(F)C(F)(F)F inactive

Write down the call the test reported for this molecule. Item: OCCC(O)CO (stereo not drawn) inactive

Write down the call the test reported for this molecule. Item: CCn1c2ccccc2c2ccccc21 inactive

Write down the call the test reported for this molecule. Item: Cc1cccc(C)n1 inactive

Write down the call the test reported for this molecule. Item: OCC(F)(F)C(F)(F)C(F)(F)C(F)(F)C(F)(F)C(F)(F)C(F)(F)C(F)(F)CO inactive

Write down the call the test reported for this molecule. Item: CCCCCCCCCCCCCC[P+](CCCC)(CCCC)CCCC inactive

Write down the call the test reported for this molecule. Item: OCCCc1cccnc1 inactive

Write down the call the test reported for this molecule. Item: O=C1c2c(O)ccc(Nc3ccc(CCO)cc3)c2C(=O)c2c([N+](=O)[O-])ccc(O)c21 inactive

Write down the call the test reported for this molecule. Item: CCN(CC)c1ccc(C=O)cc1 inactive

Write down the call the test reported for this molecule. Item: F[Si-2](F)(F)(F)(F)F inactive

Write down the call the test reported for this molecule. Item: CO[Si](CCCOCC1CO1)(OC)OC (stereo not drawn) inactive

Write down the call the test reported for this molecule. Item: COC(F)(C(F)F)C(F)(F)F (stereo not drawn) inactive

Write down the call the test reported for this molecule. Item: C=C(C)CCCC inactive

Write down the call the test reported for this molecule. Item: c1ccc(C[P+](c2ccccc2)(c2ccccc2)c2ccccc2)cc1 inactive

Write down the call the test reported for this molecule. Item: CC1=CCC(=O)O1 inactive

Write down the call the test reported for this molecule. Item: CCN=c1cc2oc3cc(NCC)c(C)cc3c(-c3ccccc3C(=O)OCC)c-2cc1C inactive

Write down the call the test reported for this molecule. Item: Oc1ccc2c(c1)CCC2 inactive

Write down the call the test reported for this molecule. Item: C=CC(=O)OCCC(F)(F)C(F)(F)C(F)(F)C(F)(F)F inactive

Write down the call the test reported for this molecule. Item: O=S(=O)(O)c1ccc(Cl)cc1 inactive
